Experiment: Tmax for Glyburide following single oral co-administration of 5 mg glyburide and 500 mg metformin hydrochloride to feeding subjects.
Type: ADME, organism-based
Conditions: human, in vivo, dietary status Fed, dosed compound id 13, dosed compound name GLYBURIDE, regimen Single dose, tissue Plasma
measured_attribute: Tmax (h)
Express it in h; write the number only.

response.value for COc1ccc(Cl)cc1C(=O)NCCc1ccc(S(=O)(=O)NC(=O)NC2CCCCC2)cc1 [GLYBURIDE] (field: Tmax) = 2.75
